Molecular target: Tissue Plasminogen Activator (Homo sapiens)
Sequence (P00750 36-562): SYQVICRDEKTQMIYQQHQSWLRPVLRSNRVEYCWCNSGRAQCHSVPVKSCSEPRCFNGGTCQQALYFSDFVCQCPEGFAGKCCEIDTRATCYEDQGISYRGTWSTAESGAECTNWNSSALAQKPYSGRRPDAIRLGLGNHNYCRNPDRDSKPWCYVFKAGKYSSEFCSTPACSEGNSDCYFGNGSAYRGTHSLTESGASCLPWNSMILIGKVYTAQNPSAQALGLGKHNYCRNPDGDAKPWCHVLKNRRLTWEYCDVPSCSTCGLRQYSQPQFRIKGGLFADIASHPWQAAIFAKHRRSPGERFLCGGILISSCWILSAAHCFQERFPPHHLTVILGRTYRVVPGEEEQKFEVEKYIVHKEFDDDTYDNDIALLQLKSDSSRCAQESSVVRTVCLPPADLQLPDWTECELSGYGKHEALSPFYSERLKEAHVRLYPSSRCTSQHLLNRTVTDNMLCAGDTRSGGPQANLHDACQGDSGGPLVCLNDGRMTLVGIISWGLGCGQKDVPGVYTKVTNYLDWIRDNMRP
Test: Selectivity assay: Tissue Plasminogen Activator
Details: IC50 of 5 or greater is considered inactive
OBSERVED PROPERTY: IC50

>>> endpoint_result("CC(C)C(NC(=O)CN(C(=O)[C@@H](NC(=O)c1ccc(C(=O)NS(=O)(=O)c2ccc(Cl)cc2)cc1)C(C)C)C1Cc2ccccc2C1)C(=O)C(F)(F)F (stereo partly shown)")
"> 6.55 µM"

----------
Target: Human sputum elastase ( HSE ) (Homo sapiens)
Construct: Human sputum elastase ( HSE ) (Elasten Products Co., Pacific, Mo.); purchased Elasten Products Co., Pacific, Mo; host or cells: human sputum (by the name of the product)
Sequence (P08246 30-267): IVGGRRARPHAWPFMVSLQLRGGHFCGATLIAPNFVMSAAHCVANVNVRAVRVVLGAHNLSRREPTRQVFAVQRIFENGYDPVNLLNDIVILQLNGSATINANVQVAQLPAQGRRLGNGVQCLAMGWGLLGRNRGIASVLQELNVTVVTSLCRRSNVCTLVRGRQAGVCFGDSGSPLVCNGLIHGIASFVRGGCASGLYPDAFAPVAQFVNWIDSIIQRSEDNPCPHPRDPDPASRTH
Experiment: Elastase Inhibition - In Vitro Method (hydrolysis of MeO-Suc-Ala-Ala-Pro-Val-pNA, microtiter format)
Type: biochemical
Conditions: IC50, Table I; 0.5 mM substrate, 15 minutes pre-incubation
pIC50: −log10 of the molar value.
OBSERVED PROPERTY: pIC50

>>> endpoint_result("COc1ccc(CCN(CC(=O)NC(C(=O)C(F)(F)F)C(C)C)C(=O)[C@@H](NC(=O)c2ccc(C(=O)NS(=O)(=O)c3ccc(Cl)cc3)cc2)C(C)C)cc1OC (stereo partly shown)")
6.99

----------
The entries below are paired with their reported inhibition at 5 µg/mL.
Target: Human sputum elastase ( HSE ) (Homo sapiens)
Construct: Human sputum elastase ( HSE ) (Elasten Products Co., Pacific, Mo.); purchased Elasten Products Co., Pacific, Mo; host or cells: human sputum (by the name of the product)
Assay: Elastase Inhibition - In Vitro Method (hydrolysis of MeO-Suc-Ala-Ala-Pro-Val-pNA, microtiter format)
Assay type: biochemical
Settings: 5ug/mL compound, 0.5 % HSA added; read-out: % Inhib. (5ug/mL) 0.5 % HSA
OBSERVED PROPERTY: inhibition at 5 µg/mL (%)

>>> endpoint_result("COc1ccc(CCN(CC(=O)NC(C(=O)C(F)(F)F)C(C)C)C(=O)[C@@H](NC(=O)c2ccc(C(=O)NS(=O)(=O)c3ccc(Cl)cc3)cc2)C(C)C)cc1OC (stereo partly drawn)")
96.3
>>> endpoint_result("CC(C)C(NC(=O)CN(C(=O)[C@@H](NC(=O)OCc1ccccc1)C(C)C)C1CCCC1)C(=O)C(F)(F)F (stereo partly drawn) [Cyclopentyl, CBZ]")
99.4
>>> endpoint_result("CC(C)C(NC(=O)CN(C(=O)[C@@H](NC(=O)c1ccc(C(=O)NS(=O)(=O)c2ccc(Cl)cc2)cc1)C(C)C)C1CC2CCC1C2)C(=O)C(F)(F)F (stereo partly drawn)")
99.5
>>> endpoint_result("CC(C)C(NC(=O)CN(C(=O)[C@@H](NC(=O)c1ccc(C(=O)NS(=O)(=O)c2ccc(Cl)cc2)cc1)C(C)C)C1CCCC1)C(=O)C(F)(F)F (single isomer, unassigned) [Cyclopentyl, p-[p-Cl(C6H4)SO2NHCO](C6H4)CO - (Diastereomer of Above)]")
99.7
>>> endpoint_result("COc1ccc(CCN(CC(=O)NC(C(=O)C(F)(F)F)C(C)C)C(=O)[C@@H](NC(=O)OCc2ccccc2)C(C)C)cc1OC (stereo partly drawn) [3,4 - Dimethoxyphenethyl, CBZ]")
87.8
>>> endpoint_result("CC(C)C(NC(=O)CN(C(=O)[C@@H](NC(=O)c1ccc(C(=O)NS(=O)(=O)c2ccc(Cl)cc2)cc1)C(C)C)C1CCCC1)C(=O)C(F)(F)F (single isomer, unassigned)")
99.8

----------
Target: UniProt:P00749
Test: Selectivity assay: Human Urokinase
Conditions: IC50 of 5 or greater is considered inactive
pIC50: −log10 of the molar value.
OBSERVED PROPERTY: pIC50

>>> endpoint_result("CC(C)C(NC(=O)CN(C(=O)[C@@H](NC(=O)c1ccc(C(=O)NS(=O)(=O)c2ccc(Cl)cc2)cc1)C(C)C)C1Cc2ccccc2C1)C(=O)C(F)(F)F (stereo partly shown)")
"< 5.18"
